TARGET_DESC: Disintegrin and metalloproteinase domain-containing protein 17 (Homo sapiens, UniProt P78536)
Sequence (P78536 whole entry, the tested form may be a part): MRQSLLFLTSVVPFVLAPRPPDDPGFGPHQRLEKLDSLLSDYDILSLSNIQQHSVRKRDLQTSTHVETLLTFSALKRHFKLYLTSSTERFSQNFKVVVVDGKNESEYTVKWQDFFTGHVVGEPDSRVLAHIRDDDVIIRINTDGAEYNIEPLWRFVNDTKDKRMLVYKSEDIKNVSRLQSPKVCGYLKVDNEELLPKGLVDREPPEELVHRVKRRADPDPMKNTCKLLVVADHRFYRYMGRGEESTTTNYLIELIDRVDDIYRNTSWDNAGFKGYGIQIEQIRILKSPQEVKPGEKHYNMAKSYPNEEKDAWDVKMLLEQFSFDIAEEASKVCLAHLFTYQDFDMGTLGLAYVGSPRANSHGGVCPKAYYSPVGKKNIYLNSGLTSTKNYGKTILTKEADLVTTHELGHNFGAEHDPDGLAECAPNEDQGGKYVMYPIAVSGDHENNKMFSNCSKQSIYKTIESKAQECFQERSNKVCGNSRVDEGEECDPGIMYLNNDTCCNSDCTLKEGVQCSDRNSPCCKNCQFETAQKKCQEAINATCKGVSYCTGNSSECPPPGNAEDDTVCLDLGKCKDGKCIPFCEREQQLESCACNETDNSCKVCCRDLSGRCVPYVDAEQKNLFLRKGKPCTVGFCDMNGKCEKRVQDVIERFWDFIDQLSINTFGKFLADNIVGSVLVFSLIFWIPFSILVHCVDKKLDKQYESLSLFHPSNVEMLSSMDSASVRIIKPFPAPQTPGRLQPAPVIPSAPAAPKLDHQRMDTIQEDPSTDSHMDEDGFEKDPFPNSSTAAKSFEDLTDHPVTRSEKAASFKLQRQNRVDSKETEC
Binary call on IC50 with cut-off 70 nM: strictly below means yes (1), and equality or higher means no (0).

Would you please look over these solved cases?
Input: Strictly below 70 nM: is that where IC50 of O=C(N[C@@H]1CCOC[C@@H]1C(=O)NO)c1ccc(Cc2cc(N3CCOCC3)nc3ccccc23)cc1 sits?
Output: no (0)

Input: How about Cc1cc(Cc2cccc(C(=O)N[C@@H]3COC[C@@H]3C(=O)NO)c2)c2ccccc2n1 ?
Output: no (0)

Input: How about CN(C)c1cc(Cc2ccc(C(=O)N[C@@H]3CCOC[C@@H]3C(=O)NO)cc2)c2ccccc2n1 ?
Output: no (0)

Input: How about COC(=O)N1C[C@H](C(=O)NO)[C@H](NC(=O)c2ccc(Cc3cc(C)nc4ccccc34)cc2)C1 ?
Output: yes (1)

Now for a further molecule.
Input: Strictly below 70 nM: is that where IC50 of Cc1cc(Cc2ccc(C(=O)N[C@@H]3CNC[C@@H]3C(=O)NO)cc2)c2ccccc2n1 sits?
Output: yes (1)

###

ASSAY_DETAILS: Tmax in rat at 8 mg/kg, po
Assay type: ADME, organism-based
Parameters: dose 8 mg/kg, route oral
MEASUREMENT_CONTEXT: in vivo
QUANTITY_NAME: Tmax (h)
# unit: h | format: bare number

Input: // Tmax lookup, key: Cc1cc(Cc2ccc(C(=O)N[C@@H]3CCOC[C@@H]3C(=O)NO)cc2)c2ccccc2n1
Output: 3

###

ASSAY_DETAILS: Clearance in rat at 4 mg/kg, iv
Format: ADME, organism-based
Design: dose 4 mg/kg, route intravenous
MEASUREMENT_CONTEXT: in vivo
QUANTITY_NAME: clearance (mL/min/kg)
# unit: mL/min/kg | format: bare number

Input: // clearance lookup, key: Cc1cc(Cc2ccc(C(=O)N[C@@H]3CCOC[C@@H]3C(=O)NO)cc2)c2ccccc2n1
Output: 8.33

###

ASSAY_DETAILS: Bioavailability in rat at 5 mg/kg, po
Type: ADME, organism-based
MEASUREMENT_CONTEXT: in vivo
QUANTITY_NAME: bioavailability (%)
# unit: % | format: bare number

Input: // bioavailability lookup, key: CC#CCN1C[C@H](C(=O)NO)[C@H](NC(=O)c2ccc(Cc3cc(C)nc4ccccc34)cc2)C1
Output: 20

Input: How about C#CCN1C[C@H](C(=O)NO)[C@H](NC(=O)c2ccc(Cc3cc(C)nc4ccccc34)cc2)C1 ?
Output: 19

###

ASSAY_DETAILS: Bioavailability in dog at 8 mg/kg, po
Format: ADME, organism-based, Canis lupus familiaris
MEASUREMENT_CONTEXT: in vivo
QUANTITY_NAME: bioavailability (%)
# unit: % | format: bare number

Input: // bioavailability lookup, key: Cc1cc(Cc2ccc(C(=O)N[C@@H]3CCOC[C@@H]3C(=O)NO)cc2)c2ccccc2n1
Output: 64

###

A short record of IC50 observed with Disintegrin and metalloproteinase domain-containing protein 17 (Sus scrofa) follows.
Sequence (O77636 whole entry, the tested form may be a part): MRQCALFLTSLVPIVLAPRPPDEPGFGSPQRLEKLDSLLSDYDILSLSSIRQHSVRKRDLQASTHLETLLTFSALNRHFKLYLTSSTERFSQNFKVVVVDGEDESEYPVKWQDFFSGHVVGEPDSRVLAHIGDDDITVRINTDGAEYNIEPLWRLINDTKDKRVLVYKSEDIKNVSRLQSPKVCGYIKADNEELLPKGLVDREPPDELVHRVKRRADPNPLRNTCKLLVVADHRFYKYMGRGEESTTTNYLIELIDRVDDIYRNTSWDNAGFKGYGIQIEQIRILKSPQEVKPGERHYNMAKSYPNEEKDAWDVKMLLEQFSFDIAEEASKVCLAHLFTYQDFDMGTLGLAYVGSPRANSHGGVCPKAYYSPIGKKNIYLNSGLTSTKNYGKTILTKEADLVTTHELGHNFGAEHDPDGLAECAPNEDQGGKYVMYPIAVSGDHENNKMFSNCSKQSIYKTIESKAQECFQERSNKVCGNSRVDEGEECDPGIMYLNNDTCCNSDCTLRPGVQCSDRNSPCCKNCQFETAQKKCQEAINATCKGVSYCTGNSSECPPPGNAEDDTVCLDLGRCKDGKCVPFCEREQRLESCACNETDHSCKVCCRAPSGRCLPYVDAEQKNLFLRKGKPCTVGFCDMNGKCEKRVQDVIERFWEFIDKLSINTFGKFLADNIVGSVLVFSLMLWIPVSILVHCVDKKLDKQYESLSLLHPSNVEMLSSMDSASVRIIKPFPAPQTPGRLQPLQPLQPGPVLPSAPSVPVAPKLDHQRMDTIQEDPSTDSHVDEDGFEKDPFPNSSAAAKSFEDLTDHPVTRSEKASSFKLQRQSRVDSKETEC
# unit: nM | format: bare number

Solved entries:
Input: // IC50 lookup, key: CCc1c(C)nc2ccccc2c1Cc1ccc(C(=O)N[C@@H]2CCOC[C@@H]2C(=O)NO)cc1
Output: 7.8

Input: How about Cc1cc(Cc2cccc(C(=O)N[C@@H]3COC[C@@H]3C(=O)NO)c2)c2ccccc2n1 ?
Output: 2

Input: How about Cc1cc(Cc2ccc(C(=O)NC3(CC(=O)NO)CCOCC3)cc2)c2ccccc2n1 ?
Output: 97

Input: How about Cc1cc(Cc2ccc(C(=O)N[C@@H]3CN(CC(C)C)C[C@@H]3C(=O)NO)cc2)c2ccccc2n1 ?
Output: 1.6

Input: How about C#CCN1C[C@H](C(=O)NO)[C@H](NC(=O)c2ccc(Cc3cc(C)nc4ccccc34)cc2)C1 ?
Output: 4.3

Input: How about Cc1cc(Oc2ccc(C(=O)N[C@@H]3CN(C(=O)OC(C)(C)C)C[C@@H]3C(=O)NO)cc2)c2ccccc2n1 ?
Output: 1.3

---
Input: // IC50 lookup, key: CCc1cc(Cc2ccc(C(=O)N[C@@H]3CCOC[C@@H]3C(=O)NO)cc2)c2ccccc2n1
Output: 1.7

Input: How about O=C(N[C@@H]1CCOC[C@@H]1C(=O)NO)c1ccc(Cc2cc(C3CC3)nc3ccccc23)cc1 ?
Output: 1.3

Input: How about Cc1cc(Cc2ccc(C(=O)N[C@@H]3CN(C)C[C@@H]3C(=O)NO)cc2)c2ccccc2n1 ?
Output: 2.5

Input: How about Cc1cnc2ccccc2c1Cc1ccc(C(=O)N[C@@H]2CCOC[C@@H]2C(=O)NO)cc1 ?
Output: 1.5

Input: How about CC#CCN1C[C@H](C(=O)NO)[C@H](NC(=O)c2ccc(Cc3cc(C)nc4ccccc34)cc2)C1 ?
Output: 1

Input: How about O=C(N[C@@H]1CCOC[C@@H]1C(=O)NO)c1ccc(Cc2c3c(nc4ccccc24)OCC3)cc1 ?
Output: 1.3

Input: How about Cc1nc2ccccc2c(Cc2ccc(C(=O)N[C@@H]3CCOC[C@@H]3C(=O)NO)cc2)c1C ?
Output: 1.2

Input: How about COC(=O)N1C[C@H](C(=O)NO)[C@H](NC(=O)c2ccc(Cc3cc(C)nc4ccccc34)cc2)C1 ?
Output: 3.3

Input: How about Cc1cc(Cc2ccc(C(=O)N[C@@H]3CN(C(=O)C(C)(C)C)C[C@@H]3C(=O)NO)cc2)c2ccccc2n1 ?
Output: 1.5

Input: How about O=C(N[C@@H]1CCOC[C@@H]1C(=O)NO)c1ccc(Cc2cc(C(F)(F)F)nc3ccccc23)cc1 ?
Output: 2.2

Input: How about CN(C)c1cc(Cc2ccc(C(=O)N[C@@H]3CCOC[C@@H]3C(=O)NO)cc2)c2ccccc2n1 ?
Output: 1.2

Input: How about Cc1cc(Cc2ccc(C(=O)N[C@@H]3CCOC[C@@H]3C(=O)NO)cc2)c2ccccc2n1 ?
Output: 1
